Test system: SF-268 CNS
Assay: NCI tumour cell line growth inhibition, 48 h
Quantity Measured: TGI

Incoming: # TGI lookup, item "COc1ccc(NC(=O)c2sc3nc4c(cc3c2N)CCCC4)cc1"
Outgoing: > 100 µM

Incoming: Same question for "c1cnc2[nH]cc(-c3csc(-c4cn(CCCN5CCCCC5)c5ccccc45)n3)c2c1" please.
Outgoing: 3.19 µM

Incoming: Same question for O=C(O)C1C(C(=O)O)C2(Cl)C(Cl)=C(Cl)C1(Cl)C2(Cl)Cl.[Cd] (stereo unspecified) please.
Outgoing: 36.8 µM

Incoming: Same question for O=C1/C(=C\c2cccc(Oc3ccccc3)c2)SC(c2ccccc2)N1c1cccc([N+](=O)[O-])c1 (stereo unspecified) please.
Outgoing: > 100 µM

Incoming: Same question for "Fc1cc(-c2nnc3n2N=C(c2ccc(Cl)cc2Cl)CS3)c(Cl)cc1Cl" please.
Outgoing: > 100 µM

Incoming: Same question for "CC(C)(CO)N=Cc1ccccc1[O-].CC(C)(CO)N=Cc1ccccc1[O-].[Co+2]" please.
Outgoing: > 100 µM

Incoming: Same question for COC(=O)c1c(OC)cc2cc3c(c(O)c2c1C)C(=O)C1(O)C(=O)C=C(OC)C(OC(=O)CC(C)N)=C1C3=O (stereo unspecified) please.
Outgoing: > 100 µM

Incoming: Same question for "CCOC(=O)CCCn1cc(C(=O)OC)nn1" please.
Outgoing: > 100 µM

Incoming: Same question for "Cc1cn([C@H]2[C@@H](CO)C[C@H]2O)c(=O)[nH]c1=O" please.
Outgoing: > 100 µM

Incoming: Same question for "O=C(Nc1ccccc1O)c1ccc(CNC(=O)c2ccsc2Nc2ccnc(C(F)(F)F)c2)cc1" please.
Outgoing: 15.1 µM

Incoming: Same question for "CC1(C)CC(=O)c2c(oc3cc(O)c(O)cc23)C1" please.
Outgoing: > 100 µM

Incoming: Same question for "Cc1ccc(/C=C2\CNC/C(=C\c3ccc(C)cc3)C2=O)cc1" please.
Outgoing: 10.3 µM

Incoming: Same question for "CC(C)(C)OC(=O)N1CCc2c(n(C/C=C/c3ccccc3)[nH]c2=O)C1" please.
Outgoing: > 100 µM

Incoming: Same question for COc1ccc(-c2nc3c(c(=O)n2C(C)=O)C(c2ccc(Cl)cc2)c2sc4c(Cl)cccc4c2O3)cc1 (stereo unspecified) please.
Outgoing: 3.82 µM

Incoming: Same question for "O=c1oc2ccc(F)cc2c(=O)n1-c1ccc(Br)cc1F" please.
Outgoing: 13.7 µM

Incoming: Same question for "CC(C)(C)c1c(C(C)(C)C)c(=O)c1=O" please.
Outgoing: > 100 µM

###

Test system: HS 578T breast
Assay: NCI tumour cell line growth inhibition, 48 h
Please provide measured TGI for the entries that follow.

Incoming: # TGI lookup, item c1ccc(CC(NCCNC(Cc2ccccc2)c2ccccc2)c2ccccc2)cc1 (centres undefined)
Outgoing: 4.12 µM

Incoming: Same question for "O=c1[nH]c2cc(Cl)c(Cl)cc2n2cc3ccccc3c12" please.
Outgoing: 53 µM

Incoming: Same question for "CCC(=O)c1cc([N+](=O)[O-])c(Br)s1" please.
Outgoing: 85 µM

Incoming: Same question for "NC(=S)N/N=C\CC(O)(C(F)(F)F)C(F)(F)F" please.
Outgoing: > 10 µM

Incoming: Same question for "CC[C@@]1(O)C(=O)OCc2c1cc1n(c2=O)Cc2cc3c(N)cccc3nc2-1" please.
Outgoing: > 60.7 µM

Incoming: Same question for "Cn1c(=O)sc2cc(C(=S)N3CCOCC3)ccc21" please.
Outgoing: > 100 µM

Incoming: Same question for CC12CC(C/C1=N/O)C(C)(C)C2 (centres undefined) please.
Outgoing: > 100 µM

Incoming: Same question for "O=P(O)(O)CN1CCNCCN(CP(=O)(O)O)CCNCC1" please.
Outgoing: > 100 µM

Incoming: Same question for "Cc1cc(S(=O)(=O)O)c(NC(=O)c2oc3cc(O)ccc3c(=O)c2C)cc1Cl" please.
Outgoing: > 100 µM
